- Test system: human hepatocyte cell line (HepG2)
- MEASUREMENT_CONDITIONS: 24 h
MEASURE_NAME: HepG2 cell TD50 (µg/mL)
Give the value in µg/mL but do not write µg/mL after it.

For orientation, consider the following solved cases.
Param item: C[P](C)(C)=[Au][S]c1ccc(F)cc1C(=O)O [Compound 18] ; param system: human hepatocyte cell line (HepG2); output HepG2 cell TD50: 18

Case C[P](C)(C)=[Au][S]c1cc(C(F)(F)F)ccn1 [Compound 14] , human hepatocyte cell line (HepG2), HepG2 cell TD50 recorded as 3

human hepatocyte cell line (HepG2) data for C[P](C)(C)=[Au][S]c1ccc(S(C)(=O)=O)cc1 [Compound 11] ; its HepG2 cell TD50: 2

Entry Cn1nnnc1C[S][Au]=[P](C)(C)C [Compound 33] under human hepatocyte cell line (HepG2) had HepG2 cell TD50 of 4

Switching to the query record.
// assay human hepatocyte cell line (HepG2), entry C[P](C)(C)=[Au][S]c1cccc(S(C)(=O)=O)c1 [Compound 34] , HepG2 cell TD50 value = 1

---

- Tested on: human hepatocyte cell line (HepG2)
- MEASUREMENT_CONDITIONS: 24 h
MEASURE_NAME: HepG2 cell TD50
# answer = value followed by unit

Short answer on human hepatocyte cell line (HepG2) for COc1ccc([S][Au]=[P](C)(C)C)cc1OC [Compound 5] , HepG2 cell TD50: 3 µg/mL

Reading of HepG2 cell TD50 for C[P](C)(C)=[Au][S]c1ncc[nH]1 [Compound 7] with human hepatocyte cell line (HepG2): 6 µg/mL

// HepG2 cell TD50 (human hepatocyte cell line (HepG2)) for C[P](C)(C)=[Au][S]c1cccc(C(F)(F)F)c1 [Compound 8] = 3 µg/mL

The value of HepG2 cell TD50 recorded for C[P](C)(C)=[Au][S]c1ncco1 [Compound 4] when tested on human hepatocyte cell line (HepG2) reads 4 µg/mL

More entries:
Reported HepG2 cell TD50 (human hepatocyte cell line (HepG2)) for entry C[P](C)(C)=[Au][S]c1ccc(C(=O)O)cc1 [Compound 26] is 13 µg/mL

---

- Tested on: human hepatocyte cell line (HepG2)
- MEASUREMENT_CONDITIONS: 24 h
Values of HepG2 cell TD50 greater than or equal to 20 µg/mL map to True; values below map to False.

Look over these answered cases.
Problem: Please tell me: is the compound COc1cccc([S][Au]=[P](C)(C)C)c1 at or over 20 µg/mL in terms of HepG2 cell TD50?
Result: False

Problem: Does the reported HepG2 cell TD50 for C[P](C)(C)=[Au][S]c1cccc(C(=O)O)c1 fall at or above the 20 µg/mL mark?
Result: True

Problem: Please check the record CCOC(=O)CNC(=O)[C@H](C[S][Au]=[P](C)(C)C)NC(=O)CC[C@H](NC(C)=O)C(=O)OCC and state if its HepG2 cell TD50 is at or above 20 µg/mL.
Result: True

Further cases:
Problem: Given C[P](C)(C)=[Au][S]c1nnn[nH]1 , state whether its HepG2 cell TD50 is at least 20 µg/mL.
Result: True

Problem: Record C[P](C)(C)=[Au][S]c1ccccc1C(F)(F)F ; criterion: HepG2 cell TD50 no lower than 20 µg/mL. Met?
Result: False

Problem: Has C[P]1(=[Au][S]c2nnn[nH]2)CCCC1 a recorded HepG2 cell TD50 greater than or equal to 20 µg/mL?
Result: False

Problem: Is reported HepG2 cell TD50 greater than or equal to 20 µg/mL here: C[P](C)(C)=[Au][S]c1ccc(C(F)(F)F)cn1
Result: False

Problem: Does HepG2 cell TD50 meet or surpass 20 µg/mL for C[P]1(=[Au][S]c2ccccc2C(=O)O)CCOCC1 ?
Result: True

Problem: Identify whether the reported HepG2 cell TD50 of the following compound is 20 µg/mL or greater: C[P]1(=[Au][S]c2ccc(F)cc2C(=O)O)CCCCC1
Result: False

Problem: Does the reported HepG2 cell TD50 for C[P](C)(C)=[Au][S]C1CCC(F)(F)CC1 fall at or above the 20 µg/mL mark?
Result: False

---

- Tested on: human hepatocyte cell line (HepG2)
- MEASUREMENT_CONDITIONS: 24 h
MEASURE_NAME: HepG2 cell TD50 (µg/mL)
Kindly provide the numeric value in µg/mL only, without the unit symbol.

Some compounds with known HepG2 cell TD50 results, for comparison:
Test item C[P]1(=[Au][S]c2nnn[nH]2)CCCCC1 ; human hepatocyte cell line (HepG2); reported HepG2 cell TD50 was 45

Tested on human hepatocyte cell line (HepG2): C[P]1(=[Au][S]c2ccccc2C(=O)O)CCCC1 . Observed HepG2 cell TD50: 11

Measured on human hepatocyte cell line (HepG2), Cc1nnc([S][Au]=[P](C)(C)C)n1C has a documented HepG2 cell TD50 of 2

Case C[P](C)(C)=[Au][S]c1ccccc1C(=O)O , human hepatocyte cell line (HepG2), HepG2 cell TD50 recorded as 11.5

Could you now consider this next compound?
Form: item CC(=O)Oc1ccc([S][Au]=[P](C)(C)C)cc1OC(C)=O ; test system human hepatocyte cell line (HepG2); HepG2 cell TD50: 2
